Origin of the recorded values: ChEMBL document CHEMBL1157539

So I've got a bunch of molecules here, and I need their Inhibition values.
Test system: Plasmodium falciparum
Assay: GSK_TCMDC: Inhibition of Plasmodium falciparum 3D7 in whole red blood cells, using parasite LDH activity as an index of growth. Test compounds present at 2uM
Type: functional
// units = %; emit number, no label

What Inhibition value was documented for this molecule, Cl.O=C1Nc2ccc3ncccc3c2/C1=C/Nc1ccc(N2CCN(CCO)CC2)cc1 ? 86

What Inhibition value was documented for this molecule, CCc1cn2c3c(cc(C(=O)N[C@@H](Cc4ccccc4)[C@H](O)CNC4CCOCC4)cc13)N(C)S(=O)(=O)C2.O=CO ? 99

What Inhibition value was documented for this molecule, CCOc1ccccc1CNc1nccc(NCCc2cn(C)c3ccccc23)n1 ? 98

What Inhibition value was documented for this molecule, O=C(Nc1cccc(Cl)c1N1CCOCC1)C(Cl)(Cl)Cl ? 96

What Inhibition value was documented for this molecule, Cc1cc(C)cc(-n2c(C)cc(/C=C3\SC(=Nc4ccc(Cl)cc4)NC3=O)c2C)c1 ? 97

What Inhibition value was documented for this molecule, COc1cccc(C(=O)Nc2nc3c(s2)CCN(Cc2ccccc2N2CCNCC2)CC3)c1.O=C(O)C(F)(F)F ? 89

What Inhibition value was documented for this molecule, Fc1ccc2[nH]c(-c3cccc(-c4ccc(CN5CCCCC5)cc4)c3)nc2c1.O=C(O)C(F)(F)F ? 99

What Inhibition value was documented for this molecule, CCOc1ccc(C=CC(=O)Nc2ccc3nc(N4CCN(C)CC4)cc(C)c3c2)cc1OC ? 100

What Inhibition value was documented for this molecule, CC(C)(C)C1CC(=O)CC2C(=O)N(c3ccc(Br)cc3)C(=O)C21 (configuration not stated) ? 94

What Inhibition value was documented for this molecule, O=C(NC(c1ccc(Cl)cc1)c1ccc2cccnc2c1O)c1ccccc1 (configuration not stated) ? 87

What Inhibition value was documented for this molecule, Nc1nc(N)c2c(ccc3c2ccn3Cc2ccc(F)cc2)n1 ? 97

What Inhibition value was documented for this molecule, OC(c1ccccc1)C1CN(CCc2ccccc2)CCC1(O)c1ccccc1 (configuration not stated) ? 97

What Inhibition value was documented for this molecule, COc1cc2c(cc1OCCN1CCC(N3CCCCC3)CC1)N(C(=O)/C=C/c1ccccc1Cl)CC2 ? 100

What Inhibition value was documented for this molecule, COc1cc2c(C3CCN(CC4CCN(C(=O)/C=C/c5ccc(Cl)c(Cl)c5)CC4)CC3)c[nH]c2cn1 ? 100

What Inhibition value was documented for this molecule, Clc1ccc(CNCCCCCCNCc2ccc(Cl)cc2)cc1.O=C(O)c1ccc2ccccc2c1O ? 96

What Inhibition value was documented for this molecule, COC(=O)C(Cc1ccccc1)NC(=O)NC1CCN(c2ccnc(Nc3ccc(F)cc3)n2)C1 (configuration not stated) ? 90

What Inhibition value was documented for this molecule, Cc1cc(=O)c(-c2ccc(Oc3cccc(OC(F)(F)F)c3)cc2)c(C)[nH]1 ? 97

What Inhibition value was documented for this molecule, CS(=O)(=O)NCCCNCc1ccc(-c2cccc(-c3nc4cc(F)ccc4[nH]3)c2)cc1.O=C(O)C(F)(F)F ? 98

What Inhibition value was documented for this molecule, CCOc1cc(C)ccc1N1CCN(CCN2CCC(NC(=O)c3ccc(-c4ccc(C#N)cc4)cc3)CC2)CC1 ? 84

What Inhibition value was documented for this molecule, CCNc1cc(C(=O)N[C@@H](Cc2ccccc2)[C@H](O)CNC2CCCC2)cc(N2CCCC2=O)c1 ? 98

What Inhibition value was documented for this molecule, COc1ccc2ccccc2c1CCCCN1CCN(CC(c2ccc(F)cc2)N2CCC(N3CCCC3)CC2)CC1.O=C(O)C(F)(F)F (configuration not stated) ? 99

What Inhibition value was documented for this molecule, COc1ccc2c(c1)S(=O)(=O)N=C(N1CCCC1c1ccc(Cl)c(Cl)c1)N2C.O=C(O)C(F)(F)F (configuration not stated) ? 89

What Inhibition value was documented for this molecule, CC(C)CCCC(C)(C)NC[C@@H](O)[C@H](Cc1ccccc1)NC(=O)c1cccc(OCC2CC2)c1 ? 96

What Inhibition value was documented for this molecule, CN1CCC(Oc2ccc(NC(=O)c3ccc4c(=O)n(Cc5ccccc5)cnc4c3)cc2Cl)CC1 ? 95

What Inhibition value was documented for this molecule, CC(C)N1CCN(C(=O)c2ccc(CNCCCN3CCN(c4ccccc4C(F)(F)F)CC3)s2)CC1.Cl ? 98

What Inhibition value was documented for this molecule, Cl.Oc1ccc2c(c1CNC1CCCCC1)CCCC2 ? 98

What Inhibition value was documented for this molecule, COc1ccc2nccc(NC(=O)OC3CCC(NCc4ccc5c(n4)NC(=O)CS5)CC3)c2c1 (configuration not stated) ? 98

What Inhibition value was documented for this molecule, O=C(Nc1ccc(-c2nc3ccccc3[nH]2)cc1)C1CCCN(C2CCC2)C1 (configuration not stated) ? 90

What Inhibition value was documented for this molecule, Fc1ccccc1C=NN=c1cc[nH]c2ccccc12 ? 94

What Inhibition value was documented for this molecule, COc1ccc2nccc(N3CCC(CCNCc4ccc5c(n4)NC(=O)CO5)CC3)c2c1.Cl ? 100

What Inhibition value was documented for this molecule, Cl.N#Cc1ccc(-c2ccc(C(=O)Nc3ccc4c(c3)CCN(C3CCC3)CC4)nc2)cc1 ? 99

What Inhibition value was documented for this molecule, COc1cc2nc(N3CCC(CNC(=O)c4ccc(-c5ccc(-c6noc(C)n6)cc5C)cc4)CC3)nc(N)c2cc1OC ? 100

What Inhibition value was documented for this molecule, CCOc1cc(C(=O)NC2CC(C)(C)N(C)C(C)(C)C2)ccc1-c1nc2cc(Cl)c(Cl)cc2[nH]1 ? 100

What Inhibition value was documented for this molecule, Cc1cc(N2CCOCC2)nc2ccc(NC(=O)c3ccc(Cl)c([N+](=O)[O-])c3)cc12 ? 98

What Inhibition value was documented for this molecule, CN(C)CCCNc1nccc(N(C)c2ccc(NC(=O)Nc3cc(C(F)(F)F)ccc3F)cc2)n1.O=C(O)C(F)(F)F ? 93

What Inhibition value was documented for this molecule, Cc1ccc(NC(=O)c2cccc(CN3CCCN(Cc4cccc(O)c4)CC3)c2)cc1.O=C(O)C(F)(F)F ? 82

What Inhibition value was documented for this molecule, C=CCc1cc(SC)ccc1Oc1ccc(N)cc1.Cl ? 96
